Reference for the values: patent US20210122757A1

system_name: Indoleamine 2,3-dioxygenase (Homo sapiens)
Construct: endogenous in cells
Sequence (P14902 whole entry): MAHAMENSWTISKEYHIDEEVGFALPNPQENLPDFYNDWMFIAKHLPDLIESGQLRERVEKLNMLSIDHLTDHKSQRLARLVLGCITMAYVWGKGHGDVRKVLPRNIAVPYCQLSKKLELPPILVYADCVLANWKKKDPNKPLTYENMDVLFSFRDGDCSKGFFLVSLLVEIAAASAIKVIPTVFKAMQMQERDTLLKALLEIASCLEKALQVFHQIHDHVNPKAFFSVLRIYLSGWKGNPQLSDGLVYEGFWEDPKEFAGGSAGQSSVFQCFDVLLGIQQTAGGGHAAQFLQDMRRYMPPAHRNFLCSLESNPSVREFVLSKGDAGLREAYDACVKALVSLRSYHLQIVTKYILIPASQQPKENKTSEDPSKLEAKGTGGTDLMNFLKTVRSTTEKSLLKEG
measurement_description: SKOV-3 Cellular Indoleamine 2,3-dioxygenase Assay
recorded_conditions: SKOV-3 cells, 50 ng/ml Interferon gamma, 100 μM L-Tryptophan, 24 hours, N-Formylkynurenin fluorescence detection; read-out: cell based activity (IC50)
pIC50: −log10 of the molar value.
property_label: pIC50

Note pIC50 for the compound shown: CC(c1nc2cc(Cl)ccc2[nH]1)C1CCC2(CC1)COc1cc(C(F)(F)F)ccc12 (single isomer, unassigned) [Example 11d]
> 7.30

Note pIC50 for the compound shown: Cc1ccc(NC(=O)C(C)C2CCC3(CC2)COc2cc(C(F)(F)F)ccc23)cc1 (single isomer, unassigned) [Example 8d]
> 7.30

Further cases:
Note pIC50 for the compound shown: CC(C(=O)Nc1ccc(Cl)cc1)[C@H]1CC[C@@]2(CCc3ccccc32)CC1 (single isomer, unassigned) [Example 2a]
> 7.30

Note pIC50 for the compound shown: CC(C(=O)Nc1ccc(Cl)cc1)C1CCC2(CC1)COc1nc(C(F)(F)F)ccc12 (single isomer, unassigned) [Example 5c]
> 7.30

Note pIC50 for the compound shown: CC1CCC(NC(=O)C(C)C2CCC3(CC2)COc2cc(C(F)(F)F)ccc23)CC1 (single isomer, unassigned) [Example 9d]
≤ 7.30

Note pIC50 for the compound shown: CC(C(=O)Nc1ccc(Cl)cc1)C1CCC2(CC1)COc1ncc(C(F)(F)F)cc12 (single isomer, unassigned) [Example 4e]
> 7.30
